experiment: RP, Waters ACQUITY Premier BEH C18, 100 × 2.1 mm, 1.7 µm, 40 °C, 0.3 to 0.4 mL/min, estimated dead time 0.73 min; A: water + 0.1% formic acid; B: acetonitrile + 0.1% formic acid; gradient (min/%B) 0/0.5 0.1/0.5 10/80 10.1/99.5 12/0.5 12.1/0.5 14.5/0.5; conditions: stereoisomer not certain
Counter-ions that a name gives are not always drawn.
# LC retention time values compiled below

[
  {
    "compound": "OCC1OC(Oc2c[nH]c3ccccc23)C(O)C(O)C1O (stereo not given)",
    "LC retention time, min": 4.43
  },
  {
    "compound": "Cn1c(=O)[nH]c(=O)c2[nH]cnc21",
    "LC retention time, min": 1.3
  },
  {
    "compound": "COc1cc2ccc(=O)oc2cc1O",
    "LC retention time, min": 4.62
  },
  {
    "compound": "O=C(O)C=Cc1cccc(O)c1",
    "LC retention time, min": 4.77
  },
  {
    "compound": "O=S(=O)(O)Oc1ccccc1 [PHENOL SULFATE]",
    "LC retention time, min": 1.17
  },
  {
    "compound": "O=C(O)c1c(O)cccc1O [2,6-DIHYDROXYBENZOIC ACID]",
    "LC retention time, min": 4.5
  },
  {
    "compound": "CC(C)(C)C1(O)CC2OC(=O)CC23C(=O)OC2OC(=O)C(O)C231 (stereo not given) [BILOBALIDE]",
    "LC retention time, min": 4.91
  },
  {
    "compound": "CC(=O)C1CCC2C3CC=C4CC(OS(=O)(=O)O)CCC4(C)C3CCC12C (stereo not given) [PREGNENOLONE SULFATE]",
    "LC retention time, min": 7.26
  },
  {
    "compound": "O=C(O)c1ccc2ccccc2c1O [1-HYDROXY-2-NAPHTHOATE]",
    "LC retention time, min": 7.32
  },
  {
    "compound": "CC(C)(N)C(=O)O [2-AMINOISOBUTYRATE]",
    "LC retention time, min": 0.886
  },
  {
    "compound": "O=c1ccc2ccc(O)cc2o1",
    "LC retention time, min": 4.61
  },
  {
    "compound": "COc1ccc2[nH]cc(CCNC(C)=O)c2c1",
    "LC retention time, min": 5.57
  },
  {
    "compound": "Cc1cc2nc3c(=O)[nH]c(=O)nc-3n(CC(O)C(O)C(O)COP(=O)(O)OP(=O)(O)OCC3OC(n4cnc5c(N)ncnc54)C(O)C3O)c2cc1C (stereo not given)",
    "LC retention time, min": 4.15
  },
  {
    "compound": "CC(O)CCCC(=O)O (stereo not given) [5-HYDROXYHEXANOIC ACID]",
    "LC retention time, min": 3.96
  },
  {
    "compound": "Cc1cn(C2CC(O)C(COP(=O)(O)O)O2)c(=O)[nH]c1=O (stereo not given) [THYMIDINE-MONOPHOSPHATE]",
    "LC retention time, min": 2.73
  },
  {
    "compound": "O=C(O)c1c(O)cc(O)cc1O [2,4,6-TRIHYDROXYBENZOIC ACID]",
    "LC retention time, min": 3.9
  },
  {
    "compound": "O=C(O)c1cccc(O)c1O [2,3-DIHYDROXYBENZOATE]",
    "LC retention time, min": 4.71
  },
  {
    "compound": "CC(C)=CCNc1ncnc2nc[nH]c12",
    "LC retention time, min": 4.63
  },
  {
    "compound": "COc1cc(C=CC(=O)O)cc(OC)c1OC",
    "LC retention time, min": 5.7
  },
  {
    "compound": "C=C(CC(=O)O)C(=O)O [ITACONATE]",
    "LC retention time, min": 3.67
  }
]
